- Test system: cysteine peptide Ac-RFAACAA-COOH
- assay.procedure: efficacy of cysteine peptide change (negative = depletion) (% activity); higher = less depletion
- reported.conditions: incubation time: 24 h
efficacy of cysteine peptide change below -100 gives not satisfied; efficacy of cysteine peptide change at or above it gives satisfied.

The following compounds have reported results that may help.
compound | group.label
Nc1cc(Cl)c(O)c(Cl)c1 | satisfied
COC(=O)Nc1nc2cc([S+]([O-])c3ccccc3)ccc2[nH]1 (stereo not given) | satisfied
c1csc(SSc2cccs2)c1 [2-Thienyl disulfide] | satisfied

Check this compound for efficacy of cysteine peptide change at or above -100: `N=C(N)NN=C(/C=C/c1ccc([N+](=O)[O-])o1)/C=C/c1ccc([N+](=O)[O-])o1` not satisfied

Check this compound for efficacy of cysteine peptide change at or above -100: `Nc1ccc(Cl)cc1Cl` satisfied

Check this compound for efficacy of cysteine peptide change at or above -100: COP(=S)(Oc1cc(Cl)c(Br)cc1Cl)c1ccccc1 (stereo not given) satisfied

Check this compound for efficacy of cysteine peptide change at or above -100: c1ccc2c(c1)OCC(C1=NCCN1)O2 (stereo not given) not satisfied

###

Entries annotated with measured efficacy of cysteine peptide change
- Tested on: cysteine peptide Ac-RFAACAA-COOH
- assay.procedure: efficacy of cysteine peptide change (negative = depletion) (% activity); higher = less depletion
- reported.conditions: incubation time: 24 h
Reply briefly: the number, and no unit.

molecule | efficacy of cysteine peptide change
Nc1cc(Cl)ccc1O | -103

Entry `O=C1c2cccc(O)c2C(=O)c2c(O)cc(CO)cc21` has what efficacy of cysteine peptide change? -75.7

Entry `CC(C)(C)C(=O)CCl` has what efficacy of cysteine peptide change? -43.1

Entry CCCCCCCCCCCCCC[N+](C)(C)C [Tetradonium bromide] has what efficacy of cysteine peptide change? 61.4

Entry C=CC(=O)OCC(COC(=O)C=C)(COC(=O)C=C)COC(=O)C=C [Pentaerythritol tetraacrylate] has what efficacy of cysteine peptide change? -102

###

- Test system: lysine peptide Ac-RFAAKAA-COOH
- assay.procedure: efficacy of lysine peptide change (negative = depletion) (% activity); higher = less depletion
- reported.conditions: incubation time: 24 h
efficacy of lysine peptide change below 10 gives n; efficacy of lysine peptide change at or above it gives y.

The following molecules have reported results that may help.
molecule | system.under.test | group.label
C/C=C1\C(=O)C[C@H]2[C@@H]3CCC4=CC(=O)CC[C@]4(C)[C@H]3CC[C@]12C | lysine peptide Ac-RFAAKAA-COOH | y
CCOc1ccc2nc(S(N)(=O)=O)sc2c1 [Ethoxzolamide] | lysine peptide Ac-RFAAKAA-COOH | y
CCOP(=S)(OCC)Oc1nc(Cl)c(Cl)cc1Cl | lysine peptide Ac-RFAAKAA-COOH | y

Check this molecule for efficacy of lysine peptide change at or above 10: `Oc1ccc(-c2ccccc2)cc1Cl` n

Check this molecule for efficacy of lysine peptide change at or above 10: `COC(=O)Nc1nc2cc(Sc3ccccc3)ccc2[nH]1` y

###

Entries annotated with measured AC50 of Nrf2/ARE luciferase induction
- Test system: KeratinoSens (HaCaT ARE-luciferase) cells
- assay.procedure: AC50 of Nrf2/ARE luciferase induction; higher = less potent
- reported.conditions: exposure time: 24 h
The reply should consist of the numeric value with the unit placed after it.

The following molecules have reported results that may help.
molecule | system.under.test | AC50 of Nrf2/ARE luciferase induction
c1coc(-c2nc3ccccc3[nH]2)c1 | KeratinoSens (HaCaT ARE-luciferase) cells | 32 µM
O=C(O)Cc1cc(I)c(Oc2cc(I)c(O)c(I)c2)c(I)c1 | KeratinoSens (HaCaT ARE-luciferase) cells | 43.1 µM
CN(C)c1ccc(SC#N)cc1 [4-(Dimethylamino)phenylthiocyanate] | KeratinoSens (HaCaT ARE-luciferase) cells | 34.2 µM
O=C(/C=C/C=C/c1ccc2c(c1)OCO2)N1CCCCC1 | KeratinoSens (HaCaT ARE-luciferase) cells | 29.1 µM

Entry `c1ccc2cc3c(ccc4ccccc43)cc2c1` has what AC50 of Nrf2/ARE luciferase induction? 40 µM

Entry `C[C@]12C=CC3=C4CCC(=O)C=C4CC[C@H]3[C@@H]1CC[C@@H]2O` has what AC50 of Nrf2/ARE luciferase induction? 39.1 µM

Entry `CC(C)=CCC1C(=O)N(c2ccccc2)N(c2ccccc2)C1=O` has what AC50 of Nrf2/ARE luciferase induction? 46 µM

Entry OC[P+](CO)(CO)CO [Tetrakis(hydroxymethyl)phosphonium SO4] has what AC50 of Nrf2/ARE luciferase induction? 29.4 µM

Entry `COc1cc(/C=C2\CCC/C(=C\c3ccc(O)c(OC)c3)C2=O)ccc1O` has what AC50 of Nrf2/ARE luciferase induction? 15.8 µM

The measurements presented in this section are drawn from the supplement of paper PMC10933113.
